// reported glass transition temperature for each item listed
// units = °C; emit number, no label

Request: For *CC(*)c1cc(C(=O)OCCCC)ccc1-c1ccc(OCCCCCCCC)cc1 (repeat unit) , what is its reported glass transition temperature?
Response: 74.00

Request: For *=Nc1ccc(C(C)(C)c2ccc(C(C)(C)c3ccc(/N=C4/OC(=O)c5ccc(Oc6ccc7c(c6)C(=O)OC7=*)cc54)cc3)cc2)cc1 (repeat unit) , what is its reported glass transition temperature?
Response: 249.00

Request: For *CCO* (repeat unit) [Poly(ethylene glycol)] , what is its reported glass transition temperature?
Response: -15.6

Request: For *CC(*)(C)C(=O)OCCCCCCOc1ccc(/N=N/c2ccc(OCCCC)cc2)cc1 (repeat unit) , what is its reported glass transition temperature?
Response: 79.00

---

// reported glass transition temperature for each item listed
Put your answer as a value accompanied by its unit after it.

Request: For *C(=O)c1ccc2c(c1)C(=O)N(c1cccc(C(O)c3cccc(N4C(=O)c5ccc(*)cc5C4=O)c3)c1)C2=O (repeat unit) , what is its reported glass transition temperature?
Response: 292.00 °C

Request: For *c1ccc(Oc2ccc(-c3nc4cc(-c5ccc6nc(-c7ccccc7)c(*)nc6c5)ccc4nc3-c3ccccc3)cc2)cc1 (repeat unit) , what is its reported glass transition temperature?
Response: 300.00 °C

Request: For *CC(*)c1ccc(COc2ccc(-c3ccc(-c4ccc(C)cc4)c4nsnc34)cc2)cc1 (repeat unit) , what is its reported glass transition temperature?
Response: 117.00 °C

---

Label yes (1) when glass transition temperature is at or above 200 °C; otherwise label no (0).

*Nc1ccc(C2(c3ccc(NC(=O)c4cc(C(*)=O)cc(C(C)(C)C)c4)cc3)c3ccccc3-c3ccccc32)cc1 (repeat unit) :: yes (1)
*CC(*)(C)C(=O)OCC(CC)CCCC (repeat unit) :: no (0)
*c1ccc2cc(-c3nc4ccc(-c5ccc6nc(*)[nH]c6c5)cc4[nH]3)ccc2c1 (repeat unit) :: yes (1)
*CC(*)(C)C(=O)OCCCCCCOc1ccc(/N=N/c2ccc(C3OCC4(CO3)CC3C=CC4C3)cc2)cc1 (repeat unit) :: no (0)
*c1ccc(-c2cc(-c3ccc(-c4ccccc4)cc3)cc(-c3ccc(N4C(=O)c5ccc(NC(=O)Nc6ccc(Oc7ccccc7-c7ccccc7Oc7ccc(NC(=O)Nc8ccc9c(c8)C(=O)N(*)C9=O)cc7)cc6)cc5C4=O)cc3)n2)cc1 (repeat unit) :: yes (1)

Request: In plain terms: is recorded glass transition temperature at least 200 °C for *CC(C)(C)COC(=O)c1ccc(-c2ccc(C(=O)O*)cc2)cc1 (repeat unit) ?
Response: no (0)

Request: In plain terms: is recorded glass transition temperature at least 200 °C for *CC(*)c1ccccc1C(=O)OC (repeat unit) ?
Response: no (0)

Request: In plain terms: is recorded glass transition temperature at least 200 °C for *CC(*)C1CCC(C)CC1 (repeat unit) ?
Response: no (0)

Request: In plain terms: is recorded glass transition temperature at least 200 °C for *CC(*)CCCCCCCCCCCCCC (repeat unit) ?
Response: no (0)

Request: In plain terms: is recorded glass transition temperature at least 200 °C for *c1ccc(Cc2ccc(N3C(=O)c4cc(-c5ccc([Si](C)(C)C)cc5)c(-c5cc6c(cc5-c5ccc([Si](C)(C)C)cc5)C(=O)N(*)C6=O)cc4C3=O)cc2)cc1 (repeat unit) ?
Response: yes (1)

Request: In plain terms: is recorded glass transition temperature at least 200 °C for *CC(*)(C)C(=O)NC1C(O)OC(CO)C(O)C1O (repeat unit) ?
Response: no (0)

Request: In plain terms: is recorded glass transition temperature at least 200 °C for *OC(=O)c1cccc(OCCCCCCCCCCOc2cccc(C(=O)OC3COC4C(*)COC34)c2)c1 (repeat unit) ?
Response: no (0)

Request: In plain terms: is recorded glass transition temperature at least 200 °C for *Oc1ccc(Oc2ccc(OC(=O)c3cc(OCCCCC)cc(C(*)=O)c3)cc2)cc1 (repeat unit) ?
Response: no (0)

Request: In plain terms: is recorded glass transition temperature at least 200 °C for *CC(*)C(=O)OCCCCCCOc1ccc(C(=O)Oc2ccc(C#N)cc2)cc1 (repeat unit) ?
Response: no (0)

Request: In plain terms: is recorded glass transition temperature at least 200 °C for *Oc1ccc(S(=O)(=O)c2ccc(Oc3ccc(C(C)(C)c4ccc(Oc5ccc(C(=O)c6ccc(*)cc6)cc5)cc4)cc3)cc2)cc1 (repeat unit) ?
Response: no (0)

Request: In plain terms: is recorded glass transition temperature at least 200 °C for *Nc1cc([N+](=O)[O-])c(NC(=O)CCCCCCC(*)=O)cc1/C=C/c1ccc(N(C)C)cc1 (repeat unit) ?
Response: no (0)

Request: In plain terms: is recorded glass transition temperature at least 200 °C for *C(=O)c1ccc(C(=O)N(*)c2ccccc2)c(Sc2ccccc2)c1 (repeat unit) ?
Response: no (0)

Request: In plain terms: is recorded glass transition temperature at least 200 °C for *CCCCNC(=O)c1cccc(C(=O)N*)c1 (repeat unit) ?
Response: no (0)

Request: In plain terms: is recorded glass transition temperature at least 200 °C for *c1cccc(-c2nc3cc(-c4ccc5[nH]c(*)nc5c4)ccc3[nH]2)c1 (repeat unit) ?
Response: yes (1)

Request: In plain terms: is recorded glass transition temperature at least 200 °C for *c1ccc(Oc2c(C)cc(C(c3cccnc3)c3cc(C)c(Oc4ccc(N5C(=O)CC(Nc6ccc(NC7CC(=O)N(*)C7=O)cc6)C5=O)cc4)c(C)c3)cc2C)cc1 (repeat unit) ?
Response: yes (1)

Request: In plain terms: is recorded glass transition temperature at least 200 °C for *O[Si](c1ccccc1)(c1ccccc1)c1ccc(-c2ccc([Si](*)(c3ccccc3)c3ccccc3)cc2)cc1 (repeat unit) ?
Response: no (0)

Request: In plain terms: is recorded glass transition temperature at least 200 °C for *c1ccc(Sc2ccc(Sc3ccc(N4C(=O)c5ccc(Oc6ccc7c(c6)C(=O)N(*)C7=O)cc5C4=O)cc3)s2)cc1 (repeat unit) ?
Response: yes (1)

Request: In plain terms: is recorded glass transition temperature at least 200 °C for *c1ccc(N2C(=O)c3ccc(Oc4ccc5c(c4)C(=O)N(*)C5=O)cc3C2=O)cc1 (repeat unit) ?
Response: yes (1)
